Catalogue of BAF3-FGFR4 pIC50 readings, one per entry.
Target: Ba/F3-FGFR4-transfected cells (Homo sapiens)
Sequence (P22455 whole entry, change not shown): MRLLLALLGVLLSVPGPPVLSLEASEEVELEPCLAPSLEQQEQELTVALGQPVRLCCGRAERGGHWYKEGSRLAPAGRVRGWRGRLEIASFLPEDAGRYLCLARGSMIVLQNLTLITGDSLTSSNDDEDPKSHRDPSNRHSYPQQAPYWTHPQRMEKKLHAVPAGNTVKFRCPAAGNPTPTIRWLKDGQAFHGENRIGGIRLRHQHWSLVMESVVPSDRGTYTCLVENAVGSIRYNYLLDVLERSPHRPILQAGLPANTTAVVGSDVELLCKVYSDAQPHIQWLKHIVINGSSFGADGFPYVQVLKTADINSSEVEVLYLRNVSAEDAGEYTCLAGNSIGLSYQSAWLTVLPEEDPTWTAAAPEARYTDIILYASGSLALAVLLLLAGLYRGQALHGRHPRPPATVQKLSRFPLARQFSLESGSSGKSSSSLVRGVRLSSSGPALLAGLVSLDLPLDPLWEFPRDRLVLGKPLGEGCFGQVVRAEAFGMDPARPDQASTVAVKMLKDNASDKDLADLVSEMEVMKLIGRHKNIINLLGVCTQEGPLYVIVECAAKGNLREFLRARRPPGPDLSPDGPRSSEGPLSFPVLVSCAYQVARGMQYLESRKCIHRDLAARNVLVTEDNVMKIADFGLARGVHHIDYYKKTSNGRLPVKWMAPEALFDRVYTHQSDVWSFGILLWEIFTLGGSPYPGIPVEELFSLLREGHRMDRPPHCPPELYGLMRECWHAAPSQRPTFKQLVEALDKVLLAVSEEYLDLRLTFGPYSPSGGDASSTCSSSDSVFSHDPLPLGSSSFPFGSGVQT
Assay: Ba/F3-FGFR4 cellular proliferation assay, Alamar Blue
Assay type: cell-based
Just the number, please, no unit after it.

Prompt: Given `COc1cc(OC)c(F)c(N(CC(=O)c2cnn(C)c2)c2ccc3ncc(-c4cnn(C)c4)nc3n2)c1` , state its recorded BAF3-FGFR4 pIC50.
Response: 5.96

Prompt: # iterate: `COc1cc(OC)c(F)c(N(CC(C)(C)O)c2ccc3ncc(-c4cnn(C)c4)nc3n2)c1`
Response: 6.34

Prompt: # iterate: `COc1cc(OC)c(F)c(N(CCS(C)(=O)=O)c2ccc3ncc(-c4cnn(CCS(C)(=O)=O)c4)nc3n2)c1`
Response: 5.78

Prompt: # iterate: COc1cc(/N=c2\ccc3ncc(-c4cnn(CC(C)(C)O)c4)nc3n2CC2CCC(=O)N2)c(F)c(OC)c1 (stereo not shown)
Response: 6.69

Prompt: # iterate: `CNCCn1/c(=N/c2c(Cl)c(OC)cc(OC)c2Cl)ccc2ncc(-c3cnn(C)c3)nc21`
Response: 5.43

Prompt: # iterate: `COc1cc(OC)c(F)c(N(Cc2ncc[nH]2)c2ccc3ncc(N4CCOCC4)nc3n2)c1`
Response: 7.08

More entries:
Prompt: Given `COc1cc(OC)cc(N(Cc2nncn2CCO)c2ccc3ncc(-c4cnn(C)c4)nc3n2)c1` , state its recorded BAF3-FGFR4 pIC50.
Response: 5.49

Prompt: # iterate: `COc1cc(OC)c(F)c(N(Cc2cnccn2)c2ccc3ncc(-c4cnn(C)c4)nc3n2)c1F`
Response: 7.57

Prompt: # iterate: COc1cc(OC)cc(N(CC(O)C(F)(F)F)c2ccc3ncc(-c4cnn(C)c4)nc3n2)c1 (stereo not shown) [Compound 8]
Response: 6.66

Prompt: # iterate: `CNCCn1/c(=N/c2c(F)ccc(OC)c2Cl)ccc2ncc(-c3cnn(C)c3)nc21`
Response: 5.69

Prompt: # iterate: `CNCCN(c1ccc2ncc(-c3cnn(C)c3)nc2n1)c1c(F)c(O)cc(OC)c1F`
Response: 5.67

Prompt: # iterate: COc1cc(OC)c(F)c(N(CC(O)COC(C)C)c2ccc3ncc(-c4cnn(C)c4)nc3n2)c1F (stereo not shown) [Compound 63]
Response: 7.49

Prompt: # iterate: `CNCCn1/c(=N/c2cc(OC)cc(OC)c2F)ccc2ncc(-c3cnn(C)c3)nc21`
Response: 5.74

Prompt: # iterate: `COc1cc(OC)c(C)c(N(Cc2ncc[nH]2)c2ccc3ncc(-c4cnn(C)c4)nc3n2)c1`
Response: 7.60

----------
Biological target: UniProt:P22607
Sequence (P22607 23-806): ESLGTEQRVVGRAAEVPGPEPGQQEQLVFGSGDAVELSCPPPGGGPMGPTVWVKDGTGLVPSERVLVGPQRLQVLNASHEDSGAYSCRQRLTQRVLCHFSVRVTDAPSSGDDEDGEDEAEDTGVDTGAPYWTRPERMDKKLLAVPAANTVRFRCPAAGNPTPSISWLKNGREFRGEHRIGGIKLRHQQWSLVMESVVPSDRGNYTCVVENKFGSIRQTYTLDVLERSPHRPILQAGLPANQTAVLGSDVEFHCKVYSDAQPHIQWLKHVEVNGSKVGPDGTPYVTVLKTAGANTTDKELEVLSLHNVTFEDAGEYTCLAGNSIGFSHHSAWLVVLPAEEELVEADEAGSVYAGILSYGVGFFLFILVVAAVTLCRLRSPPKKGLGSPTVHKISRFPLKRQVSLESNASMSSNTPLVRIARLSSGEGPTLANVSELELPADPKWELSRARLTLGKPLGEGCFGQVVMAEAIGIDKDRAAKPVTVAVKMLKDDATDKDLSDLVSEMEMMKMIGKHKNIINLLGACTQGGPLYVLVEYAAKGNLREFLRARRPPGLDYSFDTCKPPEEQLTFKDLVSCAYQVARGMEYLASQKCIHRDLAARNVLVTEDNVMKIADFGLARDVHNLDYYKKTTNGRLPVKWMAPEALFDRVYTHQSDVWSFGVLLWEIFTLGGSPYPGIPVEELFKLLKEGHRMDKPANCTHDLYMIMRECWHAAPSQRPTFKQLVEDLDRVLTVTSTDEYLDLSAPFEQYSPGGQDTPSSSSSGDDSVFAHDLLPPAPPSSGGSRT
Test: FGFR3 (enzymatic assay), TR-FRET
Format: biochemical
Conditions: read-out: FGFR 3 pIC50 (converted)
Catalogue of IC50 readings, one per entry.
Use nM as the unit, but write only the number.

// solved cases for IC50 follow
Prompt: Given COc1cc(/N=c2\ccc3ncc(-c4cnn(C)c4)nc3n2CC2CC(O)C(=O)N2)cc(OC)c1 (centres unmarked) , state its recorded IC50.
Response: 1.45

Prompt: # iterate: COc1cc(OC)cc(N(CC(O)COC(C)C)c2ccc3ncc(-c4cnn(CC(O)COC(C)C)c4)nc3n2)c1 (centres unmarked)
Response: 4.79

Prompt: # iterate: `COc1cc(OC)c(F)c(N(Cc2ncc[nH]2)c2ccc3ncc(-c4cnn(CC(C)(C)O)c4)nc3n2)c1`
Response: 1.82

Prompt: # iterate: `COc1cc(OC)cc(N(Cc2ncc[nH]2)c2ccc3ncc(-c4ccn(C)c4)nc3n2)c1`
Response: 0.646

Prompt: # iterate: COc1cc(OC)c(F)c(N(CC2COC(=O)N2)c2ccc3ncc(-c4cnn(C)c4)nc3n2)c1 (centres unmarked)
Response: 1.55

Prompt: # iterate: `COc1cc(OC)c(F)c(N(CC(N)=O)c2ccc3ncc(-c4cnn(C)c4)nc3n2)c1`
Response: 5.25

Prompt: # iterate: COc1cc(OC)c(F)c(N(CC2CCC(=O)N2C)c2ccc3ncc(-c4cnn(C)c4)nc3n2)c1 (centres unmarked) [Compound 161]
Response: 6.92

Prompt: # iterate: `COc1cc(OC)cc(N(CCNC2COC2)c2ccc3ncc(-c4cnn(C)c4)nc3n2)c1`
Response: 4.47

More entries:
Prompt: Given `COc1cc(OC)cc(N(Cc2nc(OC)cc(OC)n2)c2ccc3ncc(-c4cnn(C)c4)nc3n2)c1` , state its recorded IC50.
Response: 36.3

Prompt: # iterate: COc1cc(OC)c(F)c(N(CCNC2COC2)c2ccc3ncc(-c4cnn(C)c4)nc3n2)c1F (single isomer, unassigned)
Response: 1.41

Prompt: # iterate: `COc1cc(OC)c(F)c(N(Cc2ncco2)c2ccc3ncc(-c4cnn(C)c4)nc3n2)c1`
Response: 1.07

Prompt: # iterate: `COc1cc(OC)c(F)c(N(Cc2nccn2CCO)c2ccc3ncc(-c4cnn(C)c4)nc3n2)c1`
Response: 4.68

Prompt: # iterate: `CNCCn1ccnc1CN(c1ccc2ncc(-c3cnn(C)c3)nc2n1)c1cc(OC)cc(OC)c1F`
Response: 12.9

Prompt: # iterate: `COc1cc(OC)c(F)c(/N=c2\ccc3ncc(-c4cnn(C)c4)nc3n2CCN(C2COC2)C2COC2)c1F`
Response: 0.933

Prompt: # iterate: `COc1cc(OC)cc(N(Cc2nncn2CCO)c2ccc3ncc(-c4cnn(C)c4)nc3n2)c1`
Response: 15.1

Prompt: # iterate: `COc1cc(OC)cc(N(CC(C)(C)O)c2ccc3ncc(-c4cnn(C)c4)nc3n2)c1`
Response: 8.32

Prompt: # iterate: COc1cc(OC)cc(N(c2ccc3ncc(-c4cnn(C)c4)nc3n2)C(C)c2ncc[nH]2)c1 (centres unmarked)
Response: 1.86

Prompt: # iterate: COc1cc(/N=c2\ccc3ncc(-c4cnn(CC(C)(C)O)c4)nc3n2CC(C)(C)O)c(F)c(OC)c1 (single isomer, unassigned)
Response: 1.17

Prompt: # iterate: `COc1cc(OC)cc(N(Cc2c[nH]nn2)c2ccc3ncc(-c4cnn(C)c4)nc3n2)c1`
Response: 0.661

Prompt: # iterate: COc1cc(OC)c(F)c(N(CC2CC(O)C(=O)N2)c2ccc3ncc(-c4cnn(C)c4)nc3n2)c1 (centres unmarked)
Response: 2.14

The measured values listed here are drawn from patent US9309242B2.
